# measured target: T1, HLA-A*0201 molecule expressed on human T2 cells (human)
# T1 construct: surface HLA-A2 detected with anti-HLA-A2-PE (clone REA517); also called HLA-A2
# method summary: T2 cell HLA-A*0201 binding assay, anti-HLA-A2-PE flow cytometry
Reported mean relative fluorescence intensity at 1 µM peptide values for a set of binders
recorded endpoint: mean relative fluorescence intensity at 1 µM peptide

- binder: "RLQQELMTL [UBE2C-H3]"
  observed: "12.3 % of HIV pol reference peptide"
- binder: "AINPELLQL (also called ENT207-H) [KIF2C-H1]"
  observed: "0.4 % of HIV pol reference peptide"
- binder: "ALYDVRTIL (also called ENT168-H) [UBE2C-H1]"
  observed: "-0.2 % of HIV pol reference peptide"
- binder: "YLILEYAPL [AURKA-H1]"
  observed: "0 % of HIV pol reference peptide"
- binder: "ALYSEILTV (also called ENT169_B1; ENT_169-B1) [ANKRD30A-B1]"
  observed: "77.2 % of HIV pol reference peptide"
- binder: "ALIFGQLLL (also called ENT205_B1; ENT_205-B1) [TOP2A-B2]"
  observed: "5.5 % of HIV pol reference peptide"
- binder: "IVWSDVTYV (also called ENT187_B1) [MMP11-B1]"
  observed: "73.3 % of HIV pol reference peptide"
- binder: "AQIGIVAVV [OR51E2-H1]"
  observed: "4 % of HIV pol reference peptide"
- binder: "TLDQKLFMV (also called ENT180_B1) [ANKRD30A-B3]"
  observed: "67.5 % of HIV pol reference peptide"
- binder: "YLSGANLFV (also called CEACAM-B1; ENT188_B1) [CEACAM5-B1]"
  observed: "30.8 % of HIV pol reference peptide"
